tested on: GRK2; construct: gene ADRBK1; settings: concentration: 1 μM, replicates: in singlicate; n = 1;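 note: KINOMEscan kinase panel screen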
%Inh overview

{"columns": ["Molecule", "%Inh, %"],
 "data": [
  ["CCn1c(-c2nonc2N)nc2ccccc21 [SB-693162/GW549034]", 0],
  ["CCC(=O)c1c(-c2ccccc2)c2cc(Cl)ccc2c(=O)n1Cc1cc(C(=O)NC2CC2)n(C)n1", 0],
  ["COc1cc(Nc2ccnc3ccc(C(F)(F)F)cc23)cc(OC)c1OC [GW577382]", 0],
  ["CCC(=O)c1c(-c2ccccc2)c2cc(Cl)ccc2c(=O)n1Cc1ccc(C(=O)O)cc1", 0],
  ["CCc1nc(-c2cccc(C)c2)c(-c2ccncc2)s1", 0],
  ["CCCNC(=O)Nc1ccc(Oc2ncnc3ccn(C)c23)cc1", 40],
  ["Nc1nc(-c2ccccc2F)c(-c2ccnc3ccccc23)s1 [GW560459]", 0],
  ["COc1ccc(-c2cc3c(C)nc(N)nc3n([C@H]3CC[C@H](OCCO)CC3)c2=O)cn1", 17],
  ["OCCCNc1nccc(-c2c(-c3cccc(C(F)(F)F)c3)nn3cc(C(F)(F)F)ccc23)n1 [GW630813]", 0],
  ["CC(C)(C)c1ccc(C(=O)Nc2cn3cc(-c4ccccc4)ccc3n2)cc1", 0],
  ["COc1cc(Nc2nccc(N3CCC(NC(=O)C(C)c4ccc(Cl)cc4)C3)n2)cc(OC)c1OC (centres unmarked) [GSK1379757]", 0],
  ["O=C(Nc1n[nH]c2cc(-c3ccccc3F)ccc12)C1CC1 [SB-733371]", 0],
  ["O=C(Nc1ccc2c(c1)OCO2)NC1CCN(c2ccnc(NCc3ccc(F)cc3)n2)CC1 [GSK1379859]", 0],
  ["Nc1ncnc2c1ncn2-c1cccc2ccccc12 [SKF-97184]", 0],
  ["COc1cc2ncn(-c3cc(OCc4ccncc4)c(C(N)=O)s3)c2cc1OC [GSK336313]", 0],
  ["COc1cc2nccc(Nc3ccc(OCc4ccc(NC(C)=O)cc4)cc3)c2cc1OC.Cl [GW440135]", 0],
  ["COc1ccc(Nc2nccc(N3CCC(NS(=O)(=O)c4ccc(NC(C)=O)cc4)C3)n2)cc1 (centres unmarked) [GSK1379729]", 3],
  ["COC(=O)c1c(-c2ccccc2)c2cc(Br)ccc2c(=O)n1Cc1ccc(S(C)(=O)=O)cc1", 14],
  ["COc1ccc(-n2cnc3c(N)ncnc32)cc1 [SKF-97236]", 12],
  ["COc1cc2ncn(-c3cc(OCc4ccncc4Br)c(C(N)=O)s3)c2cc1OC [GW854278]", 5],
  ["Nc1nc(N)c2nc(-c3ccccc3)[nH]c2n1 [SKF-12778]", 13],
  ["CCS(=O)(=O)c1ccc(OC)c(Nc2ncc(-c3ccc(F)cc3)o2)c1.Cl [GW591947]", 0],
  ["CCc1ccc(-c2ccc3c(c2)-c2nn(C)cc2S(=O)(=O)N3C)cc1", 0],
  ["CCC(=O)c1c(-c2ccccc2)c2cc(Cl)ccc2c(=O)n1Cc1cc(S(C)(=O)=O)n(CC(N)=O)n1", 0],
  ["COc1cc2ncn(-c3cc(OCc4ccc(S(C)(=O)=O)cc4)c(C(N)=O)s3)c2cc1OC [GW869979]", 45],
  ["CN1C(=O)C(Nc2cc(Cl)c(O)c(Cl)c2)=C(c2ccc(Cl)cc2)C1=O [SB-404321]", 22],
  ["COC(=O)c1c(-c2ccccc2)c2cc(C)ccc2c(=O)n1Cc1ccccc1", 0],
  ["COc1cc2ncn(-c3cc(OCCCc4ccccc4)c(C(N)=O)s3)c2cc1OC [GSK205189]", 0],
  ["Nc1n[nH]c2ncc(-c3ccccc3)cc12 [SB-517081]", 0],
  ["CCC(=O)c1c(-c2ccccc2)c2cc(Cl)ccc2c(=O)n1Cc1cc(S(C)(=O)=O)n(CC(F)F)n1", 0],
  ["Cc1nc(N(C)[C@H]2CN(C(=O)CC#N)CC[C@H]2C)c2cc[nH]c2n1", 0],
  ["Nc1ncnc2c1ncn2-c1cccc(F)c1 [SKF-97560]", 61]
]}

Value source: paper PMC5540273
